biological target: mTOR (Homo sapiens, UniProt P42345); construct: phosphorylation of the Akt protein at Ser473 (AKT lies downstream of PI3Kα in the signal transduction pathway) in the MDA-MB-468 cells; endogenous in cells; host or cells: MDA-MB-468 cells (ATCC HTB 132); experiment: Assay d): mTOR cellular potency (phospho-AKT Ser473 in MDA-MB-468 cells); assay type: cell-based; conditions: MDA-MB-468 cells, phospho-AKT Ser473, 2 h; Table 2; read-out: Assay d) mTOR Cell IC50
pIC50: −log10 of the molar value.
Label rule, in plain words: pIC50 of 5 and up is class 1, under 5 is class 0.

molecule	label
CO[C@H]1CC[C@H](n2c(=O)n(C)c3cnc4cc(F)c(-c5ccc(OCCCN6CCC6)cc5)cc4c32)C1 (single isomer, unassigned)	class 1
CO[C@H]1C[C@@H](n2c(=O)n(C)c3cnc4ccc(-c5ccc(OCCN6CCCC6)cc5)cc4c32)C1	class 0
CO[C@H]1CC[C@H](n2c(=O)n(C)c3cnc4ccc(-c5ccc(OCCN(C)C)cc5)cc4c32)C1	class 1
CN(C)CCOc1ccc(-c2cc3c(cc2F)ncc2c3n(C3CCOCC3)c(=O)n2C)cc1	class 0
CO[C@H]1CCC[C@H](n2c(=O)n(C)c3cnc4ccc(-c5ccc(OCCCN6CCCC6)cc5)cc4c32)C1 (single isomer, unassigned)	class 1
CO[C@H]1C[C@H](n2c(=O)n(C)c3cnc4ccc(-c5ccc(OCCCN(C)C)cc5)cc4c32)C1	class 1

----------
Target: mTOR (Homo sapiens, UniProt P42345)
Construct: phosphorylation of the Akt protein at Ser473 (AKT lies downstream of PI3Kα in the signal transduction pathway) in the MDA-MB-468 cells; endogenous in cells; host or cells: MDA-MB-468 cells (ATCC HTB 132)
Assay: Assay d): mTOR cellular potency (phospho-AKT Ser473 in MDA-MB-468 cells)
Format: cell-based
Conditions: MDA-MB-468 cells, phospho-AKT Ser473, 2 h; Table 2; read-out: Assay d) mTOR Cell IC50
Procedure: This assay was used to measure mTOR inhibition in cells. The aim of the phospho-AKT cell based mechanism of action assay using the Acumen Explorer is to identify inhibitors of either PI3Kα or mTOR-Rictor (Rapamycin insensitive companion of mTOR). This is measured by any decrease in the phosphorylation of the Akt protein at Ser473 (AKT lies downstream of PI3Kα in the signal transduction pathway) in the MDA-MB-468 cells following treatment with compound. […]
pIC50: −log10 of the molar value.
Listing of recorded pIC50 by entry.
measuredQuantity: pIC50

compound	reportedResult
CO[C@@H]1CC[C@H](n2c(=O)n(C)c3cnc4ccc(-c5ccc(OCCCN(C)C)cc5)cc4c32)C1 (single isomer, unassigned)	5.33
CN(C)CCCOc1ccc(-c2ccc3ncc4c(c3c2)n(C2CCOCC2)c(=O)n4C)cc1	5.16
CO[C@H]1C[C@@H](n2c(=O)n(C)c3cnc4cc(F)c(-c5ccc(OCCCN(C)C)cc5)cc4c32)C1	5.25
CO[C@@H]1CCC[C@H](n2c(=O)n(C)c3cnc4ccc(-c5ccc(OCCCN6CCCC6)cc5)cc4c32)C1 (relative stereo)	6.05

----------
biological target: UniProtKB P42336; assay: Assay c): PI3K cellular potency (phospho-Akt T308 ELISA in BT474 cells); format: cell-based; settings: BT474 cells, phospho-Akt T308, 2 h; Table 3 comparative data
Sequence (P42336 whole entry): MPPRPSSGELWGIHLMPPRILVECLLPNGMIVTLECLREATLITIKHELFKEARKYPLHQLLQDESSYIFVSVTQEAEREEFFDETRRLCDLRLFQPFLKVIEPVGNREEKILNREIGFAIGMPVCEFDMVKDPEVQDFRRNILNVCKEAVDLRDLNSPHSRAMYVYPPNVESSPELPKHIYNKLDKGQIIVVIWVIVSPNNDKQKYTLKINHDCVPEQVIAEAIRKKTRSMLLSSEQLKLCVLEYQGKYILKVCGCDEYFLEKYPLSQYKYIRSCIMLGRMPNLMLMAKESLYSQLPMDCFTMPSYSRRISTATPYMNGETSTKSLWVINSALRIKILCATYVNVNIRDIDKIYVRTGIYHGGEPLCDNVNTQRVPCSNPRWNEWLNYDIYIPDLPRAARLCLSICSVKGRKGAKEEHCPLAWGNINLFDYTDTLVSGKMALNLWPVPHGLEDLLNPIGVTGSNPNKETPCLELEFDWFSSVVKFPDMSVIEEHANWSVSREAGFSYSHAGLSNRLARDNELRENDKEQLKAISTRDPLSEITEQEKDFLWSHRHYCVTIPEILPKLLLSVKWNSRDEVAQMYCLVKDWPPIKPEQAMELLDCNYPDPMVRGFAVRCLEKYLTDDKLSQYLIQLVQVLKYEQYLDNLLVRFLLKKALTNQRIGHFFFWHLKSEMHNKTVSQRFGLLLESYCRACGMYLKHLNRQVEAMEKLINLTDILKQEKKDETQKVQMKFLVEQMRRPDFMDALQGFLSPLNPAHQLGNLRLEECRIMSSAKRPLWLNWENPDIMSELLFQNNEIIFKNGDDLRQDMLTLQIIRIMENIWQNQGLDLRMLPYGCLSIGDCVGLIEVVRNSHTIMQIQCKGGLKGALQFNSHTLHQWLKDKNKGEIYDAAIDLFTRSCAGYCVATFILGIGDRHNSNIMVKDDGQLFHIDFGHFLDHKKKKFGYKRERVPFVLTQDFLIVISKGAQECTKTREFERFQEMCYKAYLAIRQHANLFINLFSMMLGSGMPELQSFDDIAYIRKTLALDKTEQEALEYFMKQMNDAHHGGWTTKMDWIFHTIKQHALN
Sequence (P27986 2-724, further chain): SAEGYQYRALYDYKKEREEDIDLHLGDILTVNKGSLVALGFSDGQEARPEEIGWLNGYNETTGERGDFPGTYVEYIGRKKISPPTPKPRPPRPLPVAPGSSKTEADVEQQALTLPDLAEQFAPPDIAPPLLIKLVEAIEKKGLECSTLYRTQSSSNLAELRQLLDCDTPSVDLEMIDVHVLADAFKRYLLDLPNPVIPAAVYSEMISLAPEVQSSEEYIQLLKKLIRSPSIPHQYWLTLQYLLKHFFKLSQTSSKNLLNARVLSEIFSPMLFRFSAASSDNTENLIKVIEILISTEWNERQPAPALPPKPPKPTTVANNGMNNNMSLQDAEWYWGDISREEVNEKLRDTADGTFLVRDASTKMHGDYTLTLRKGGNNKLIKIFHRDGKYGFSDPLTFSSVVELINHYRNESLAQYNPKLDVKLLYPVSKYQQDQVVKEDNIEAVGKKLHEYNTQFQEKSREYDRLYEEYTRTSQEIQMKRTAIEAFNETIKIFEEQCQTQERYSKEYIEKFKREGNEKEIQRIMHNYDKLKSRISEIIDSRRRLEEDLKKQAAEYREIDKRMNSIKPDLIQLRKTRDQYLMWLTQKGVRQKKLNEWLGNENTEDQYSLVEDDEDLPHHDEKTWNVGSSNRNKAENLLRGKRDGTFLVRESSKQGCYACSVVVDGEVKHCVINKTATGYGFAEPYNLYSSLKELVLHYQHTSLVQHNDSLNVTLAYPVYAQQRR
Catalogue of Assay c) PI3Ka Cell IC50 readings, one per entry.

compound	Assay c) PI3Ka Cell IC50 [nM]
Cn1c(=O)n(C2CC2)c2c3cc(-c4cnc(N)nc4)ccc3ncc21 [CN102399218A Compound 64, reference compound]	247
Cn1c(=O)n(C2CNC2)c2c3cc(-c4cnc5[nH]ccc5c4)ccc3ncc21 [CN102399218A Compound 61, reference compound]	1730
COc1ccc(-c2ccc3ncc4c(c3c2)n(C2CCN(C(C)=O)CC2)c(=O)n4C)cn1 [CN102372711A Compound 5, reference compound]	153
COc1ccc(-c2ccc3ncc4c(c3c2)n(C2CCNCC2)c(=O)n4C)cn1 [CN102372711A Compound 1, reference compound]	188
Cn1c(=O)n(C2CC2)c2c3cc(-c4cnc5[nH]ccc5c4)ccc3ncc21 [CN102399218A Compound 62, reference compound]	149
Cn1c(=O)n(C2CCOCC2)c2c3cc(-c4cnc(N)nc4)ccc3ncc21 [CN102399218A Compound 94, reference compound]	80.4
COc1ncc(-c2ccc3ncc4c(c3c2)n(C2CC2)c(=O)n4C)cc1NS(=O)(=O)C1CC1 [CN102399218A Compound 114, reference compound]	13.1
